# TESTED_TARGET: VIM-1 (Pseudomonas aeruginosa, UniProt A0A0F7KYQ8)
# TEST_METHOD_NOTES: Enzyme activity: determination of IC50, fluorescence assay with CCF2-FA substrate (VIM-1)
# ASSAY_CONDITIONS: 30 pM enzyme, 1.25 μM CCF2-FA, 2 hours at 25° C.; read-out: VIM1 IC50
PROPERTY: pIC50
pIC50 is defined as minus the log10 of a concentration measured in mol/L.

Consider the following illustrative entries.
1. CCOC(=O)c1cn2c(n1)N(c1ccc(S(=O)(=O)N[C@@H]3CCNC3)c(S(N)(=O)=O)c1-c1nn[nH]n1)CCC2 9.92
2. NS(=O)(=O)c1c(S(=O)(=O)N[C@@H]2CCNC2)ccc(N2CCc3nc(O)ccc3C2)c1-c1nnn[nH]1 8.96
3. NCC(CN)NS(=O)(=O)c1ccc(N2CCn3ccnc3C2)c(-c2nn[nH]n2)c1S(N)(=O)=O 9.60

Then there is this compound:
For NC[C@@H](O)CS(=O)(=O)c1ccc(N2CCCn3ccnc32)c(-c2nn[nH]n2)c1S(N)(=O)=O , write its pIC50.
8.65

----------
IMP-1 (Serratia marcescens, UniProt P52699): recorded IC50 for assorted compounds
Sequence (P52699 19-246, looked up, species assumed): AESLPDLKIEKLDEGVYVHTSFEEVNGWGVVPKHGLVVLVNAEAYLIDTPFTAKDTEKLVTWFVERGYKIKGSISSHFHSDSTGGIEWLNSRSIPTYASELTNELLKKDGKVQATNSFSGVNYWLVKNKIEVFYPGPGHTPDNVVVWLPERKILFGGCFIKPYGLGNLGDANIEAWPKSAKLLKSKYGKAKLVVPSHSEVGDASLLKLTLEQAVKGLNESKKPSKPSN
Respond with the bare value in nM.

Examples from the recorded data:
1. NC[C@@H](O)CNS(=O)(=O)c1ccc(-n2ccnc2)c(-c2nn[nH]n2)c1S(N)(=O)=O 2.97
2. NC[C@@H](O)CNS(=O)(=O)c1ccc(N2CC[C@@H](CO)n3ccnc32)c(-c2nn[nH]n2)c1S(N)(=O)=O 6.52
3. NS(=O)(=O)c1c(S(=O)(=O)N[C@@H]2CCNC2)ccc(N2CCn3ccnc3C2)c1-c1nnn[nH]1 2.17

Switching to the query record.
State IC50 on IMP-1 (Serratia marcescens, UniProt P52699). Entry: NS(=O)(=O)c1c(S(=O)(=O)N[C@@H]2CCNC2)ccc(N2CCn3cncc3C2)c1-c1nn[nH]n1
2.01

----------
# TESTED_TARGET: VIM-1 (Pseudomonas aeruginosa)
# TEST_METHOD_NOTES: Enzyme activity: determination of IC50, fluorescence assay with CCF2-FA substrate (VIM-1)
# ASSAY_CONDITIONS: 30 pM enzyme, 1.25 μM CCF2-FA, 2 hours at 25° C.; read-out: VIM1 IC50
pIC50: −log10 of the molar value.
Response key: 1 means pIC50 >= 9; -1 means pIC50 < 9.

Past entries and their recorded results:
COMPOUND	CLASS_LABEL
NS(=O)(=O)c1c(S(=O)(=O)N[C@@H]2CCNC2)ccc(N2CCc3ncc(O)cc3C2)c1-c1nnn[nH]1	1
NCCNS(=O)(=O)c1ccc(N2CCn3ccnc32)c(-c2nnn[nH]2)c1S(N)(=O)=O	-1
NC[C@@H](O)CNS(=O)(=O)c1ccc(N2CCc3cccnc32)c(-c2nn[nH]n2)c1S(N)(=O)=O	1
NS(=O)(=O)c1c(S(=O)(=O)N[C@@H]2CCNC2)ccc(N2CCc3cccnc32)c1-c1nnn[nH]1	1
NC[C@@H](O)CNS(=O)(=O)c1ccc(N2CCC(CO)n3ccnc32)c(-c2nn[nH]n2)c1S(N)(=O)=O (stereo partly drawn)	1
NS(=O)(=O)c1c(S(=O)(=O)N[C@@H]2CCNC2)ccc(N2CCn3ccnc3C2)c1-c1nnn[nH]1	1

Query compound follows.
Hi team, for NS(=O)(=O)c1c(S(=O)(=O)N[C@@H]2CCNC2)ccc(N2CCc3cccnc3C2)c1-c1nnn[nH]1 , is the recorded pIC50 at or above 9?
-1

----------
Entries below carry reported pIC50 on IMP-1 (Serratia marcescens).
The value called pIC50 is obtained by taking minus log10 of the concentration in mol/L.

Example cases with answers are listed next.
1) NCCNS(=O)(=O)c1ccc(N2CCn3ccnc32)c(-c2nnn[nH]2)c1S(N)(=O)=O 8.01
2) NS(=O)(=O)c1c(S(=O)(=O)N[C@@H]2CCNC2)ccc(N2CCCn3ccnc32)c1-c1nnn[nH]1 8.01

Given the molecule NS(=O)(=O)c1c(S(=O)(=O)N[C@@H]2CCNC2)ccc(N2CCn3ncnc3C2)c1-c1nn[nH]n1 , write its reported pIC50.
8.39

For the molecule NC[C@@H](O)CS(=O)(=O)c1ccc(N2CCCn3ccnc32)c(-c2nn[nH]n2)c1S(N)(=O)=O , report pIC50.
8.25

Given NS(=O)(=O)c1c(S(=O)(=O)N[C@@H]2CCNC2)ccc(N2CCc3[nH]ncc3C2)c1-c1nnn[nH]1 , respond with its pIC50.
8.95

Find the measured pIC50 of NCCNS(=O)(=O)c1ccc(N2CCCn3ccnc32)c(-c2nn[nH]n2)c1S(N)(=O)=O and report it.
8.33

Provide measured pIC50 value, entry: NS(=O)(=O)c1c(S(=O)(=O)N[C@@H]2CCNC2)ccc(N2CCc3cccnc3C2)c1-c1nnn[nH]1
7.36

Give the measured pIC50 for NS(=O)(=O)c1c(S(=O)(=O)N[C@@H]2CCNC2)ccc(N2CCc3cccnc32)c1-c1nnn[nH]1
8.94

Assign pIC50 to the following record: NCC(CN)NS(=O)(=O)c1ccc(N2CCn3ccnc3C2)c(-c2nn[nH]n2)c1S(N)(=O)=O
8.53

----------
Measured IC50 accompanies every entry in the list below.
# TESTED_TARGET: NDM-1 (Klebsiella pneumoniae, UniProt C7C422)
# Sequence (C7C422 29-270, looked up, species assumed): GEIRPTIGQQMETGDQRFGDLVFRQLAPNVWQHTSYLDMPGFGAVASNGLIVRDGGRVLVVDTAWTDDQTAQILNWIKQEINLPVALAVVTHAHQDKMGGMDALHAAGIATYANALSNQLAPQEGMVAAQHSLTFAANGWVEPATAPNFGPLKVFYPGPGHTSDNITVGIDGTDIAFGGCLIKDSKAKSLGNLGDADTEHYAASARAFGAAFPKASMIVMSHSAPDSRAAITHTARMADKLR
Dear colleague, please return just the value in nM, with no unit written.

These solved cases illustrate the format of a correct answer.
1. NS(=O)(=O)c1c(S(=O)(=O)N[C@@H]2CCNC2)ccc(N2CCc3nc(O)ccc3C2)c1-c1nnn[nH]1 3.09
2. NC[C@@H](O)CNS(=O)(=O)c1ccc(N2CCn3ccnc32)c(-c2nnn[nH]2)c1S(N)(=O)=O 1.03
3. NS(=O)(=O)c1c(S(=O)(=O)N[C@@H]2CCNC2)ccc(N2CCCn3cnnc32)c1-c1nn[nH]n1 0.72

Answer with reported IC50 of CCOC(=O)c1cn2c(n1)N(c1ccc(S(=O)(=O)N[C@@H]3CCNC3)c(S(N)(=O)=O)c1-c1nn[nH]n1)CCC2
0.04

----------
What follows is a collection of pIC50 values obtained with UniProtKB Q5U7L7.
// scale note: pIC50 = -log10(conc_M); give the bare number

MOLECULE	pIC50
NC[C@@H](O)CNS(=O)(=O)c1ccc(-n2ccnc2)c(-c2nn[nH]n2)c1S(N)(=O)=O	9.02
CCOC(=O)c1cn2c(n1)N(c1ccc(S(=O)(=O)N[C@@H]3CCNC3)c(S(N)(=O)=O)c1-c1nn[nH]n1)CCC2	9.26
NS(=O)(=O)c1c(S(=O)(=O)N[C@@H]2CCNC2)ccc(N2CCc3[nH]ncc3C2)c1-c1nnn[nH]1	9.01
NS(=O)(=O)c1c(S(=O)(=O)N[C@@H]2CCNC2)ccc(N2CCc3[nH]cnc3C2)c1-c1nnn[nH]1	8.48
NS(=O)(=O)c1c(S(=O)(=O)N[C@@H]2CCNC2)ccc(N2CCn3cncc3C2)c1-c1nn[nH]n1	9.17
NS(=O)(=O)c1c(S(=O)(=O)N[C@@H]2CCNC2)ccc(N2CCc3[nH]nnc3C2)c1-c1nnn[nH]1	8.29
NC[C@@H](O)CNS(=O)(=O)c1ccc(N2CCn3ccnc32)c(-c2nnn[nH]2)c1S(N)(=O)=O	8.01
NC[C@@H](O)CNS(=O)(=O)c1ccc(N2CCC(CO)n3ccnc32)c(-c2nn[nH]n2)c1S(N)(=O)=O (some centres unmarked)	8.62
NS(=O)(=O)c1c(S(=O)(=O)N[C@@H]2CCNC2)ccc(N2CCCn3ccnc32)c1-c1nnn[nH]1	8.67
NS(=O)(=O)c1c(S(=O)(=O)N[C@@H]2CCNC2)ccc(N2CCCn3nccc32)c1-c1nn[nH]n1	9.18

Fill in pIC50 for C[C@H](CN)NS(=O)(=O)c1ccc(N2CCCn3ccnc32)c(-c2nnn[nH]2)c1S(N)(=O)=O tested with UniProtKB Q5U7L7.
8.95

With UniProtKB Q5U7L7 as the test system, provide measured pIC50 for this molecule: NC[C@@H](O)CNS(=O)(=O)c1ccc(N2CC[C@@H](CO)n3ccnc32)c(-c2nn[nH]n2)c1S(N)(=O)=O
7.84

Fill in pIC50 for NCCNS(=O)(=O)c1ccc(N2CCn3ccnc32)c(-c2nnn[nH]2)c1S(N)(=O)=O tested with UniProtKB Q5U7L7.
7.82

Write down measured pIC50 (UniProtKB Q5U7L7) for this molecule. NS(=O)(=O)c1c(S(=O)(=O)N[C@@H]2CCNC2)ccc(N2CCc3nc(O)ccc3C2)c1-c1nnn[nH]1
8.32

----------
# TESTED_TARGET: IMP-1 (Serratia marcescens, UniProt P52699)
Friendly reminder: IC50 below 7 nM is yes, at or above is no.

Example results:
MOLECULE	TESTED_TARGET	CLASS_LABEL
NC[C@@H](O)CNS(=O)(=O)c1ccc(N2CCc3cccnc32)c(-c2nn[nH]n2)c1S(N)(=O)=O [Example 36]	IMP-1 (Serratia marcescens, UniProt P52699)	yes
NC[C@@H](O)CNS(=O)(=O)c1ccc(N2CCn3ccnc32)c(-c2nnn[nH]2)c1S(N)(=O)=O [Example 19]	IMP-1 (Serratia marcescens, UniProt P52699)	no
NS(=O)(=O)c1c(S(=O)(=O)N[C@@H]2CCNC2)ccc(N2CCc3ncc(O)cc3C2)c1-c1nnn[nH]1 [Example 24]	IMP-1 (Serratia marcescens, UniProt P52699)	yes

Quick check: IC50 of NS(=O)(=O)c1c(S(=O)(=O)N[C@@H]2CCNC2)ccc(N2CCCn3ncnc32)c1-c1nnn[nH]1 [Example 8] under 7 nM?
yes

For NS(=O)(=O)c1c(S(=O)(=O)N[C@@H]2CCNC2)ccc(N2CCc3nc(O)ccc3C2)c1-c1nnn[nH]1 [Example 25] , is the recorded IC50 below the cut-off of 7 nM?
yes

Could you please tell me whether IC50 recorded for NC[C@H](O)CNS(=O)(=O)c1ccc(N2CCCn3ccnc32)c(-c2nnn[nH]2)c1S(N)(=O)=O [Example 18] is less than 7 nM?
no
